Origin of values: paper PMC6013488

TEST SYSTEM: CDK9/cyclin K (Homo sapiens)
Construct: purchased Invitrogen (ThermoFisher) PV4335
Sequence (P50750 whole entry): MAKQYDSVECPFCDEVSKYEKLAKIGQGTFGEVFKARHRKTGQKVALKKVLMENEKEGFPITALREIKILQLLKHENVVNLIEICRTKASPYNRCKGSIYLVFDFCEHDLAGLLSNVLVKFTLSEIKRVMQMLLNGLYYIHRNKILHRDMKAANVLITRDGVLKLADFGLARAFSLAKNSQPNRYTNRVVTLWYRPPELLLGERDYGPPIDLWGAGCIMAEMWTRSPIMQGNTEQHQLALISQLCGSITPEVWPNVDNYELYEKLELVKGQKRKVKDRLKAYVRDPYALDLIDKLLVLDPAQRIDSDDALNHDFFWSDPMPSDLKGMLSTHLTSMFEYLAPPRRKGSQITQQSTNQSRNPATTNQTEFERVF
Sequence (O75909 whole entry partner): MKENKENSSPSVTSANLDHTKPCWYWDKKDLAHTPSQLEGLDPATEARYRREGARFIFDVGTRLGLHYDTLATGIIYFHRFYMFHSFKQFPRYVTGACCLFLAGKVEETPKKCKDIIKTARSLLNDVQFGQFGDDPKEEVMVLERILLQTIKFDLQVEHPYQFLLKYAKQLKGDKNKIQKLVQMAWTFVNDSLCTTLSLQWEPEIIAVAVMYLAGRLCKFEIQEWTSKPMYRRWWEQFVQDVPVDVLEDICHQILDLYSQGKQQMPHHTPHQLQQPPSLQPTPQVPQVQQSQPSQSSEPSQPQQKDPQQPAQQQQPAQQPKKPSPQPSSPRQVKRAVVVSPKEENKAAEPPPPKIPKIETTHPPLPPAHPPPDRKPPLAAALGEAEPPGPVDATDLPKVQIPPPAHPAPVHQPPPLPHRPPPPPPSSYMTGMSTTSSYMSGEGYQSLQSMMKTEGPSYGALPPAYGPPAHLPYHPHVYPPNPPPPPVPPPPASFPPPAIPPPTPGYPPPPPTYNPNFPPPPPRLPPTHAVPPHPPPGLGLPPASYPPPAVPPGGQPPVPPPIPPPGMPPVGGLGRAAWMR
PROTOCOL NOTES: TR-FRET Lanthascreen Eu Kinase Binding assay
ASSAY CONTEXT: classifies curves by quality of fit, efficacy and number of asymptotes
Reported Curve Class values follow for various compounds

{"COMPOUND": "CC(C)c1nn(-c2c(Cl)cccc2Cl)c2nc(Cc3ccc(OCCO)cc3)[nH]c(=O)c12", "Curve Class": -1.2}
{"COMPOUND": "Nc1nc(NCCNc2ncc(-n3ccnc3)c(-c3ccc(Cl)cc3Cl)n2)ccc1[N+](=O)[O-]", "Curve Class": -1.1}
{"COMPOUND": "Nc1ncnc2c1c(I)cn2[C@@H]1O[C@H](CO)[C@H](O)C1O (some centres unmarked)", "Curve Class": -1.1}

Value of measured Curve Class for the entry COc1ccccc1-c1cc(Nc2cccc(C[S+](N)(=O)[O-])c2)ncn1 : -1.1
